Origin of measurements: patent US7718669B2

tested.on: endothelial lipase (EL) (Homo sapiens, UniProt Q9Y5X9)
Construct: made in house; host or cells: recombinant CHO or HEK293 cell lines; concentrated conditioned medium
Sequence (Q9Y5X9 21-500, species assumed): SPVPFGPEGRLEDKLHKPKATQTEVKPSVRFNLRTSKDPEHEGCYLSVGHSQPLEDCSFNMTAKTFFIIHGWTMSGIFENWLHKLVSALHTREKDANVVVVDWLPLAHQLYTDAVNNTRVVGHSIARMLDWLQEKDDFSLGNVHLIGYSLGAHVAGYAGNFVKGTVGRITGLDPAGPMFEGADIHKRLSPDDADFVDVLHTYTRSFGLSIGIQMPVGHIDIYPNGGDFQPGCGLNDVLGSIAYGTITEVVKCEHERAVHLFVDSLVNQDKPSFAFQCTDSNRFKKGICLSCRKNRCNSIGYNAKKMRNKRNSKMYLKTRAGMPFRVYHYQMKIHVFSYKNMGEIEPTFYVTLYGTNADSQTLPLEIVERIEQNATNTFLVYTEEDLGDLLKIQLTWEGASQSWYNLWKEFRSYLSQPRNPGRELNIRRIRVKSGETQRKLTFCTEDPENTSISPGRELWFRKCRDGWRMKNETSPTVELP
experimental.protocol: EL inhibition assay
Assay type: biochemical
reported.conditions: EL from conditioned medium of recombinant cell lines (CHO, HEK293); Bodipy phospholipid substrate; 37° C. for 60 minutes
measured.metric: IC50 (µM)
Respond numerically; units are µM and should not be typed.

Some solved entries appear below for comparison.
So what's the measured IC50 for this one? CCCCCCNC(=O)n1nnc2nc(Cl)ccc21
0.04

Likewise for Cc1ccccc1CNC(=O)n1nnc2nc(Cl)ccc21 ?
0.74

---
So what's the measured IC50 for this one? Cc1ccccc1CNC(=O)n1nnc2ncc(Cl)cc21
0.58

Likewise for Cc1ccccc1CNC(=O)n1nnc2cc(Cl)cnc21 ?
1.24
